Collected CC50 at 72 h values appear next to each entry.
- Test details: Cytotoxicity against human MRC5 SV2 cells after 72 hrs using resazurin by fluorimetry
- Format: cell-based
Write the answer as a number in µM, unit excluded.

{"Chemical string": "O=C1[C@H]2Cc3c([nH]c4ccccc34)[C@@H](c3ccc4c(c3)OCO4)N2C(=O)CN1[C@@H]1CCN(CC2CCCCC2)C1", "Experimental result": 7}

Lab note: next compound to report on.
Task: Given the entry COc1ccc([C@@H]2c3[nH]c4ccccc4c3C[C@@H]3C(=O)N([C@@H]4CCN(Cc5ccccc5)C4)CC(=O)N23)cc1OC , report its measured CC50 at 72 h.
Output: 32
